Reference source for all entries: PubChem BioAssay AID2284424

Test system: SRY-box transcription factor 2 (SOX2) Protein Expression, SOX2 (gene 6657)
Experiment: CCTE_Deisenroth_DEVTOX-GLR_Ecto_SOX2: CCTE's DevTox GLR-Ecto Assay Evaluation of SRY-box transcription factor 2 (SOX2) Protein Expression, Deisenroth Lab
Calls of active or inactive are those of the source. How the source made its calls: active means hit-call score of the fitted dose curve at least 0.9, where 1 is the maximum; inactive means score below 0.9.
Respond using exactly one of the listed classes: active, inactive

The examples below pair each entry with its known result.
CCCC(CCC)C(=O)O ... inactive
CC/C(=C(/CC)c1ccc(O)cc1)c1ccc(O)cc1 ... inactive
CN(Cc1cnc2nc(N)nc(N)c2n1)c1ccc(C(=O)N[C@@H](CCC(=O)O)C(=O)O)cc1 ... active
CCN(CC)CCNC(=O)c1c(C)[nH]c(/C=C2\C(=O)Nc3ccc(F)cc32)c1C ... inactive
O=C1NC(=O)C(c2ccccc2)(c2ccccc2)N1 ... inactive

// query Write down the call the test reported for this compound. Item: `O=c1[nH]cc(F)c(=O)[nH]1`
// result active

// query How did this test come out for `O=C1NS(=O)(=O)c2ccccc21` ?
// result inactive

// query Which outcome was entered for the compound `CS(=O)(=O)OCCCCOS(C)(=O)=O` in this test?
// result active

// query I would be grateful if you could indicate the recorded call for `CC1=C(/C=C/C(C)=C/C=C/C(C)=C/C(=O)O)C(C)(C)CCC1` .
// result active

// query Please share the test call associated with `Nc1nc2ncc(CNc3ccc(C(=O)N[C@@H](CCC(=O)O)C(=O)O)cc3)nc2c(=O)[nH]1` .
// result inactive

// query For this compound, state the assay outcome: `CC1(C)S[C@@H]2[C@H](NC(=O)Cc3ccccc3)C(=O)N2[C@H]1C(=O)O`
// result inactive

// query Which outcome was assigned to O=C1CCC(N2C(=O)c3ccccc3C2=O)C(=O)N1 (configuration not stated) in this test?
// result inactive
